Known pKd of a selection of compounds
# SYSTEM: GDP-bound KRAS wild-type protein (Homo sapiens, UniProt P01116)
# Sequence (P01116 whole entry): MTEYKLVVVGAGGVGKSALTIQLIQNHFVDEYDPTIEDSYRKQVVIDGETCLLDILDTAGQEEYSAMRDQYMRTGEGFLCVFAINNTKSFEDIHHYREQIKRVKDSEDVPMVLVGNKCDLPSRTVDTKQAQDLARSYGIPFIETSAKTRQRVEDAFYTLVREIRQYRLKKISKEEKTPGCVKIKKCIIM
# EXPERIMENTAL_DETAILS: Binding to KRAS by surface plasmon resonance (SPR), Single Cycle Kinetics
# TEST_PARAMETERS: SPR Single Cycle Kinetics, GDP-bound KRAS wild-type protein, 1:1 binding model; read-out: KRAS KD
pKd: −log10 of the molar value. Where a SMILES comes first, the peptide text is derived from it. Bridges are numbered along the chain shown (N, C = ends). [ ]: non-standard residue; d: D form. The star is where a group is joined. hPhe(3-Cl-4-CF3) = N[C@@H](CCc1ccc(C(F)(F)F)c(Cl)c1)C(=O)O; NEtPhe(4-CF3) = CCN[C@@H](Cc1ccc(C(F)(F)F)cc1)C(=O)O; NEtPhe(4-Me) = CCN[C@@H](Cc1ccc(C)cc1)C(=O)O; NMeGly(cPent) = CN[C@H](C(=O)O)C1CCCC1; NMeD = CN[C@@H](CC(=O)O)C(=O)O; NMeL = CN[C@@H](CC(C)C)C(=O)O; Ac6c = NC1(C(=O)O)CCCCC1; Morpholide = C1CN(*)CCO1; Ac5c = NC1(C(=O)O)CCCC1; NEtG = CCNCC(=O)O; Sar = CNCC(=O)O
READOUT_NAME: pKd

compound=CCO[C@@H]1C[C@H]2C(=O)NC3(CCC3)C(=O)N(C)[C@@H](C3CCCC3)C(=O)N(C)[C@H](C(=O)N3CCOCC3)CC(=O)N(C)[C@@H](C)C(=O)N[C@@H]([C@@H](C)CC)C(=O)N(C)CC(=O)N(C)[C@H]3CCCCCN(C3=O)[C@@H](Cc3ccc(C(F)(F)F)cc3)C(=O)N(C)CC(=O)N[C@@H](CCc3cc(F)c(C(F)(F)F)c(F)c3)C(=O)N2C1 reported=9.20
compound="CC[C@H](C)[C@@H]1NC(=O)[C@H](CC(C)C)N(C)C(=O)C[C@@H](C(=O)N2CCOCC2)N(C)C(=O)[C@H](C2CCCC2)N(C)C(=O)C2(CCCCC2)NC(=O)[C@@H]2CCCN2C(=O)[C@H](CCc2ccc(C(F)(F)F)c(Cl)c2)NC(=O)CN(C)C(=O)[C@H](Cc2ccc(C(F)(F)F)cc2)N(CC)C(=O)CN(C)C(=O)CN(C)C1=O [PP0236] ([NMeL]I[Sar][Sar][NEtPhe(4-CF3)][Sar][hPhe(3-Cl-4-CF3)]P[Ac6c][NMeGly(cPent)][NMeD]-Morpholide; lactam N-11)" reported=9.27
compound="CC[C@H](C)[C@@H]1NC(=O)[C@H](CC(C)C)N(C)C(=O)C[C@@H](C(=O)N2CCOCC2)N(C)C(=O)[C@H](C2CCCC2)N(C)C(=O)C2(CCCC2)NC(=O)[C@@H]2CCCN2C(=O)[C@H](CCc2ccc(C(F)(F)F)c(Cl)c2)NC(=O)CN(C)C(=O)[C@H](Cc2ccc(C)cc2)N(CC)C(=O)CN(CC)C(=O)CN(C)C1=O [PP0027] ([NMeL]I[Sar][NEtG][NEtPhe(4-Me)][Sar][hPhe(3-Cl-4-CF3)]P[Ac5c][NMeGly(cPent)][NMeD]-Morpholide; lactam N-11)" reported=9.10
compound=CCC[C@H]1C(=O)N[C@@H](CC(C)C)C(=O)N(CC)CC(=O)N(C)[C@H]2C/C=C\CCN(C2=O)[C@@H](Cc2ccc(C)cc2)C(=O)N(C)CC(=O)N[C@@H](CCc2ccc(C(F)(F)F)c(Cl)c2)C(=O)N2C[C@H](OCC)C[C@H]2C(=O)NC2(CCC2)C(=O)N(C)[C@@H](C2CCCC2)C(=O)N(C)[C@H](C(=O)N(C)C)CC(=O)N1C reported=8.37

---

# SYSTEM: GDP-bound KRAS wild-type protein (Homo sapiens)
# EXPERIMENTAL_DETAILS: Binding to KRAS by surface plasmon resonance (SPR), Single Cycle Kinetics
# TEST_PARAMETERS: SPR, Single Cycle Kinetics, 1:1 binding model; GDP-bound KRAS wild-type protein; read-out: KRAS KD
pKd: −log10 of the molar value.
The threshold is inclusive: pKd of exactly 10 counts as Condition met; values below receive Condition not met.

compound=CCO[C@@H]1C[C@H]2C(=O)NC3(CCC3)C(=O)N(C)[C@@H](C(CC)CC)C(=O)N(C)[C@H](C(=O)N(C)C)CC(=O)N(C)[C@@H](CC(C)C)C(=O)N[C@@H]([C@@H](C)CC)C(=O)N(C)CC(=O)N(C)[C@H]3C/C=C\CCN(C3=O)[C@@H](Cc3ccc(C(F)(F)F)cc3)C(=O)N(C)CC(=O)N[C@@H](CCc3cc(F)c(Cl)c(F)c3)C(=O)N2C1 class_label="Condition not met"
compound=CCO[C@@H]1C[C@H]2C(=O)NC3(CC(C)(C)C3)C(=O)N(C)[C@@H](C3CCCC3)C(=O)N(C)[C@H](C(=O)N(C)C)CC(=O)N(C)[C@@H](CC3CC3)C(=O)N[C@@H]([C@@H](C)CC)C(=O)N(C)CC(=O)N(C)[C@H]3C/C=C\CCN(C3=O)[C@@H](Cc3ccc(C(F)(F)F)cc3)C(=O)N(C)CC(=O)N[C@@H](CCc3ccc(C(F)(F)F)c(OC)c3)C(=O)N2C1 class_label="Condition met"
compound=CCO[C@@H]1C[C@H]2C(=O)NC3(CCC3)C(=O)N(C)[C@@H](C3CCCC3)C(=O)N(C)[C@H](C(=O)N3CCOCC3)CC(=O)N(C)[C@@H](CC3CCC3)C(=O)N[C@@H]([C@@H](C)CC)C(=O)N(C)CC(=O)N(C)[C@H]3C/C=C\CCN(C3=O)[C@@H](Cc3ccc(C)cc3)C(=O)N(C)CC(=O)N[C@@H](CCc3cc(F)c(C(F)(F)F)c(F)c3)C(=O)N2C1 class_label="Condition not met"

---

# SYSTEM: GDP-bound KRAS wild-type protein (Homo sapiens)
# EXPERIMENTAL_DETAILS: Binding to KRAS by surface plasmon resonance (SPR), Single Cycle Kinetics
# TEST_PARAMETERS: SPR, Single Cycle Kinetics, GDP-bound KRAS wild-type protein; read-out: KRAS KD
pKd: −log10 of the molar value.
READOUT_NAME: pKd

compound=CC[C@H](C)[C@@H]1NC(=O)[C@H](CC)N(C)C(=O)C[C@@H](C(=O)N(C)C)N(C)C(=O)[C@H](C2CCCC2)N(C)C(=O)C2(CCC2)NC(=O)[C@@H]2CCCN2C(=O)[C@H](CCc2cc(F)c(C(F)(F)F)c(F)c2)NC(=O)CN(C)C(=O)[C@H](Cc2ccc(C(F)(F)F)cc2)N2CC/C=C\C[C@@H](C2=O)N(C)C(=O)CN(C)C1=O system="GDP-bound KRAS wild-type protein (Homo sapiens)" readout_name=pKd reported=10.03
compound=CCO[C@@H]1C[C@H]2C(=O)NC3(CC(C)(C)C3)C(=O)N(C)[C@@H](C(CC)CC)C(=O)N(C)[C@H](C(=O)N(C)C)CC(=O)N(C)[C@@H](CC3CCC3)C(=O)N[C@@H]([C@@H](C)CC)C(=O)N(C)CC(=O)N(C)[C@H]3C/C=C\CCN(C3=O)[C@@H](Cc3ccc(C(F)(F)F)cc3)C(=O)N(C)CC(=O)N[C@@H](CCc3cc(F)c(C(F)(F)F)c(F)c3)C(=O)N2C1 system="GDP-bound KRAS wild-type protein (Homo sapiens)" readout_name=pKd reported=9.72
compound=CC[C@H](C)[C@@H]1NC(=O)[C@H](CC)N(C)C(=O)C[C@@H](C(=O)N(C)CC)N(C)C(=O)[C@H](C2CCCC2)N(C)C(=O)C2(CC(C)(C)C2)NC(=O)[C@@H]2C[C@H](C)CN2C(=O)[C@H](CCc2ccc(C(F)(F)F)c(Cl)c2)NC(=O)CN(C)C(=O)[C@H](Cc2ccc(C)cc2)N2CC/C=C\C[C@@H](C2=O)N(C)C(=O)CN(C)C1=O system="GDP-bound KRAS wild-type protein (Homo sapiens)" readout_name=pKd reported=9.89
compound=CC[C@H](C)[C@@H]1NC(=O)[C@H](CC)N(C)C(=O)C[C@@H](C(=O)N(C)C)N(C)C(=O)[C@H](C2CCCC2)N(C)C(=O)C2(CC(C)(C)C2)NC(=O)[C@@H]2C[C@@H](C)CN2C(=O)[C@H](CCc2ccc(C(F)(F)F)c(OC)c2)NC(=O)CN(C)C(=O)[C@H](Cc2ccc(C)cc2)N2CC/C=C\C[C@@H](C2=O)N(C)C(=O)CN(C)C1=O system="GDP-bound KRAS wild-type protein (Homo sapiens)" readout_name=pKd reported=10.00

---

# SYSTEM: GDP-bound KRAS wild-type protein (Homo sapiens)
# EXPERIMENTAL_DETAILS: Binding to KRAS by surface plasmon resonance (SPR), Single Cycle Kinetics
# TEST_PARAMETERS: SPR, Single Cycle Kinetics, GDP-bound KRAS wild-type protein; read-out: KRAS KD
pKd: −log10 of the molar value.
READOUT_NAME: pKd

compound=CC[C@H](C)[C@@H]1NC(=O)[C@H](CC)N(C)C(=O)C[C@@H](C(=O)N(C)C)N(C)C(=O)[C@H](C2CCCC2)N(C)C(=O)C2(CCC2)NC(=O)[C@@H]2C[C@@H](OC)CN2C(=O)[C@H](CCc2cc(F)c(C(F)(F)F)c(F)c2)NC(=O)CN(C)C(=O)[C@H](Cc2ccc(C(F)(F)F)cc2)N2CC/C=C\C[C@@H](C2=O)N(C)C(=O)CN(C)C1=O reported=10.46
compound=CCC[C@H]1C(=O)N[C@@H](C2CCCCC2)C(=O)N(C)CC(=O)N(C)[C@H]2C/C=C\CCN(C2=O)[C@@H](Cc2ccc(C(F)(F)F)cc2)C(=O)N(C)CC(=O)N[C@@H](CCc2ccc(C(F)(F)F)c(Cl)c2)C(=O)N2C[C@H](OCC)C[C@H]2C(=O)NC2(CC(C)(C)C2)C(=O)N(C)[C@@H]([C@@H](C)CC)C(=O)N(C)[C@H](C(=O)N(C)C)CC(=O)N1C reported=8.66
compound=CCC[C@H]1C(=O)N[C@@H]([C@@H](C)CC)C(=O)N(C)CC(=O)N(C)[C@H]2C/C=C\CCN(C2=O)[C@@H](Cc2ccc(C)cc2)C(=O)N(C)CC(=O)N[C@@H](CCc2ccc(C(F)(F)F)c(OC)c2)C(=O)N2C[C@H](OCC)C[C@H]2C(=O)NC2(CC(C)(C)C2)C(=O)N(C)[C@@H](C(CC)CC)C(=O)N(C)[C@H](C(=O)N(C)C)CC(=O)N1C reported=9.44
compound=CC[C@H](C)[C@@H]1NC(=O)[C@H](CC)N(C)C(=O)C[C@@H](C(=O)N(C)C)N(C)C(=O)[C@H](C2CCCC2)N(C)C(=O)C2(CCC2)NC(=O)[C@@H]2C[C@H](F)CN2C(=O)[C@H](CCc2cc(F)c(C(F)(F)F)c(F)c2)NC(=O)CN(C)C(=O)[C@H](Cc2ccc(C(F)(F)F)cc2)N2CC/C=C\C[C@@H](C2=O)N(C)C(=O)CN(C)C1=O reported=10.18
compound=CCCOC[C@H]1C(=O)N[C@@H]([C@@H](C)CC)C(=O)N2CCC[C@H]2C(=O)N(C)[C@H]2C/C=C\CCN(C2=O)[C@@H](CC2CCC(F)(F)CC2)C(=O)N(C)CC(=O)N[C@@H](CCc2ccc(C(F)(F)F)c(OC)c2)C(=O)N2C[C@@H](C)C[C@H]2C(=O)N(C)C2(CCC2)C(=O)N(C)[C@@H](C2CCCC2)C(=O)N(C)[C@H](C(=O)N(C)C)CC(=O)N1C reported=9.03
compound=CCO[C@@H]1C[C@H]2C(=O)NC3(CCC3)C(=O)N(C)[C@@H](C3CCCC3)C(=O)N(C)[C@H](C(=O)N3C[C@@H](C)O[C@@H](C)C3)CC(=O)N(C)[C@@H](CC(C)C)C(=O)N[C@@H]([C@@H](C)CC)C(=O)N(C)CC(=O)N(C)[C@H]3CCCCCN(C3=O)[C@@H](Cc3ccc(F)cc3)C(=O)N(C)CC(=O)N[C@@H](CCc3ccc(C(F)(F)F)c(Cl)c3)C(=O)N2C1 reported=9.55
compound=CC[C@H](C)[C@@H]1NC(=O)[C@H](CC(C)C)N(C)C(=O)C[C@@H](C(=O)N2CCOCC2)N(C)C(=O)[C@H](C2CCCC2)N(C)C(=O)C2(CCC2)NC(=O)[C@@H]2[C@@H](OCC(F)F)CCN2C(=O)[C@H](CCc2cc(F)c(C(F)(F)F)c(F)c2)NC(=O)CN(C)C(=O)[C@H](Cc2ccc(C(F)(F)F)cc2)N2CCCCC[C@@H](C2=O)N(C)C(=O)CN(C)C1=O reported=9.05
